tested_on: SARS-CoV-2 PLpro (Severe acute respiratory syndrome coronavirus 2 (2019-nCoV) (SARS-CoV-2), UniProt P0DTD1)
protocol_details: PLpro enzymatic inhibition assay (IC50 value determination)
assay_conditions: 60 min preincubation for covalent inhibitors, 10 min for non-covalent, read-out: Inhibition of SARS-CoV-2 PLpro IC50 range
pIC50: −log10 of the molar value.
readout_type: pIC50

In the examples that follow, each entry is paired with its recorded pIC50.
INSERT INTO measurements (compound, readout_type, reported) VALUES
  ('C#CCNC(=O)CNC(=O)CN(C1CCN(C(C)c2ccnc3ccccc23)CC1)S(C)(=O)=O (stereo not shown) [Compound 85]', 'pIC50', '6.00 to 7.00'),
  ('C#CCNC(=O)CNC(=O)CN(C1CCN([C@H](C)c2cccc3ccccc23)CC1)S(=O)(=O)CCC(N)=O [Compound 133]', 'pIC50', '> 7.00'),
  ('C#CCNC(=O)CNC(=O)CN(C1CCN(C(C)c2cccc3ccccc23)CC1)S(C)(=O)=O (stereo not shown) [Compound 97]', 'pIC50', '> 7.00');

Turning now to a further record.
Prompt: Which pIC50 value is on record for COC(=O)/C=C/CNC(=O)CNC(=O)CN(/C=C/C(=O)C(F)(F)F)C1CCN([C@H](C)c2cccc3ccccc23)CC1 [Compound 67] ?
Completion: > 7.00

###

tested_on: SARS-CoV-2 PLpro (Severe acute respiratory syndrome coronavirus 2 (2019-nCoV) (SARS-CoV-2), UniProt P0DTD1)
protocol_details: PLpro enzymatic inhibition assay (IC50 value determination)
assay_conditions: 60 min preincubation for covalent inhibitors, 10 min for non-covalent, read-out: Inhibition of SARS-CoV-2 PLpro IC50 range
pIC50: −log10 of the molar value.
readout_type: pIC50

INSERT INTO assay_data (compound, readout_type, reported) VALUES
  ('COC(=O)/C=C/CNC(=O)CNC(=O)CN(C(=O)Cc1ccc2c(c1)OCO2)C1CCN([C@H](C)c2cccc3ccccc23)CC1 [Compound 2]', 'pIC50', '6.00 to 7.00'),
  ('C#CCNC(=O)CNC(=O)CN(C1CCN([C@H](C)c2cccc3ccccc23)CC1)S(=O)(=O)CCCO [Compound 135]', 'pIC50', '> 7.00'),
  ('C=CC(=O)NNC(=O)CN(C1CCN(C(C)c2cccc3ccccc23)CC1)S(C)(=O)=O (stereo not shown) [Compound 168]', 'pIC50', '5.00 to 6.00'),
  ('C#CC(=O)NNC(=O)CN(C1CCN([C@H](C)c2cccc3ccccc23)CC1)S(C)(=O)=O [Compound 147]', 'pIC50', '> 7.00'),
  ('COC(=O)/C=C/CNC(=O)CNC(=O)CN(C(=O)Cc1ccccc1)C1CCN(C(C)c2cccc3ccccc23)CC1 (stereo not shown) [Compound 4]', 'pIC50', '6.00 to 7.00'),
  ('C#CCNC(=O)CNC(=O)[C@@H]1CNS(=O)(=O)N1C1CCN([C@H](C)c2cccc3ccccc23)CC1 [Compound 92, 2,2,2-trifluoroacetate]', 'pIC50', '5.00 to 6.00');

Consider now this further compound.
Prompt: What does the data say about its pIC50? Entry: C#CCNC(=O)CNC(=O)CN(C1CCN(C(C)c2ccccc2OC)CC1)S(C)(=O)=O (stereo not shown) [Compound 130]
Completion: > 7.00

###

Please go through the items and note down their pIC50.
tested_on: SARS-CoV-2 PLpro (Severe acute respiratory syndrome coronavirus 2 (2019-nCoV) (SARS-CoV-2))
protocol_details: PLpro enzymatic inhibition assay (IC50 value determination)
assay_conditions: 60 min preincubation for covalent inhibitors, 10 min for non-covalent, read-out: Inhibition of SARS-CoV-2 PLpro IC50 range
pIC50: −log10 of the molar value.

INSERT INTO measurements (compound, readout_type, reported) VALUES
  ('C#CCNC(=O)CNC(=O)CN(C1CCN(C(C)c2ccccc2Cl)CC1)S(C)(=O)=O (stereo not drawn)', 'pIC50', '> 7.00'),
  ('CC(c1cccc2ccccc12)N1CCC(N(CC(=O)NCC(=O)NC/C=C/S(C)(=O)=O)C(=O)C2CCC2)CC1 (stereo not drawn)', 'pIC50', '6.00 to 7.00'),
  ('C#CCNC(=O)CNC(=O)CN(C1CCN(C(C)c2ccccc2F)CC1)S(C)(=O)=O (stereo not drawn)', 'pIC50', '6.00 to 7.00'),
  ('C#CCNC(=O)CNC(=O)CNC1CCN([C@H](C)c2cccc3ccccc23)CC1', 'pIC50', '6.00 to 7.00'),
  ('C#CCNC(=O)CNC(=O)CN(C1CCN(C(C)c2ccc(OC)cc2Cl)CC1)S(C)(=O)=O (stereo not drawn)', 'pIC50', '6.00 to 7.00'),
  ('COC(=O)/C=C/CNC(=O)CNC(=O)C[C@H](NCc1ccc2c(c1)OCO2)C1CCN(C(C)c2cccc3ccccc23)CC1 (stereo partly drawn)', 'pIC50', '6.00 to 7.00'),
  ('C#CCNC(=O)CNC(=O)CN(C1CCN(C(C)c2ccccc2C(F)(F)F)CC1)S(C)(=O)=O (stereo not drawn)', 'pIC50', '6.00 to 7.00'),
  ('C#CCNC(=O)CNC(=O)CN(C1CCN(C(C)c2cccc(Cl)c2Cl)CC1)S(C)(=O)=O (stereo not drawn)', 'pIC50', '6.00 to 7.00');

// each compound listed below needs its pIC50
1. C#CCNC(=O)CNC(=O)CN(C1CCN(C(C)c2cccc3ccccc23)CC1)S(=O)(=O)N1CCCC1 (stereo not drawn)
2. C#CCNC(=O)CNC(=O)CN(C1CCN(C(C)c2cccc(Br)c2)CC1)S(C)(=O)=O (stereo not drawn)
3. C#CCNC(=O)CNC(=O)CN(C1CCN([C@H](C)c2cccc3ccccc23)CC1)S(=O)(=O)C1CC1
4. C#CCNC(=O)CNC(=O)CN(C1CCN(C(C)c2ccccc2-c2ccccc2)CC1)S(C)(=O)=O (stereo not drawn)
5. COC(=O)/C=C/CNC(=O)CNC(=O)CN(C(=O)C(F)(F)F)C1CCN([C@H](C)c2cccc3ccccc23)CC1
6. COC(=O)/C(C#N)=C/CNC(=O)CNC(=O)CN(C1CCN(C(C)c2cccc3ccccc23)CC1)S(C)(=O)=O (stereo not drawn)
7. C[C@H](c1cccc2ccccc12)N1CCC(N(CC(=O)NCC(=O)NCC=O)S(C)(=O)=O)CC1

Completion:
1: > 7.00; 2: 6.00 to 7.00; 3: > 7.00; 4: 6.00 to 7.00; 5: 6.00 to 7.00; 6: 6.00 to 7.00; 7: > 7.00

###

tested_on: SARS-CoV-2 PLpro (Severe acute respiratory syndrome coronavirus 2 (2019-nCoV) (SARS-CoV-2))
protocol_details: PLpro enzymatic inhibition assay (IC50 value determination)
assay_conditions: 60 min preincubation for covalent inhibitors, 10 min for non-covalent, read-out: Inhibition of SARS-CoV-2 PLpro IC50 range
pIC50: −log10 of the molar value.
readout_type: pIC50

INSERT INTO results (compound, readout_type, reported) VALUES
  ('CC(c1cccc2ccccc12)N1CCC(N(CC(=O)NCC(=O)NCC(=O)CF)S(C)(=O)=O)CC1 (stereo not drawn)', 'pIC50', '> 7.00'),
  ('C#CCNC(=O)CNC(=O)CN(C1CCN(C(C)c2cccc3ccccc23)CC1)S(=O)(=O)N1CCN(CC(=O)OCC)CC1 (stereo not drawn)', 'pIC50', '> 7.00'),
  ('C#CCNC(=O)CNC(=O)CN(C1CCN(c2nc3cc(Cl)ccc3s2)CC1)S(C)(=O)=O', 'pIC50', '5.00 to 6.00'),
  ('C#CCNC(=O)CNC(=O)CN(C1CCN(C(C)c2cccc(-c3cccs3)c2)CC1)S(C)(=O)=O (stereo not drawn)', 'pIC50', '6.00 to 7.00'),
  ('C#CCNC(=O)CNC(=O)CN(C1CCN(C(CF)c2cccc3ccccc23)CC1)S(C)(=O)=O (stereo not drawn)', 'pIC50', '5.00 to 6.00'),
  ('C#CCNC(=O)CNC(=O)CN(C1CCN(C(C)c2ccc(F)c3ccccc23)CC1)S(C)(=O)=O (stereo not drawn)', 'pIC50', '> 7.00'),
  ('CCCC(=O)N(CC(=O)NCC(=O)NC/C=C/C(=O)OC)C1CCN([C@H](C)c2cccc3ccccc23)CC1', 'pIC50', '> 7.00'),
  ('C#CCCNC(=O)CNC(=O)CN(C1CCN([C@H](C)c2cccc3ccccc23)CC1)S(C)(=O)=O', 'pIC50', '6.00 to 7.00');

// each listed compound needs a value for pIC50
1. C#CCNC(=O)CNC(=O)CN(C1CCN(C(C)c2ccc(OC)c(Cl)c2)CC1)S(C)(=O)=O (stereo not drawn)
2. C#CCNC(=O)CNC(=O)CN(C1CCN(C(C)c2cccc(OC)c2Cl)CC1)S(C)(=O)=O (stereo not drawn)
3. C#CCNC(=O)CNC(=O)CN(C1CCN(C(C)c2cccc(C)c2C)CC1)S(C)(=O)=O (stereo not drawn)
4. COC(=O)/C=C/CNC(=O)CNC(=O)CN(C(=O)C(C)C)C1CCN([C@H](C)c2cccc3ccccc23)CC1

Completion:
> 7.00
6.00 to 7.00
> 7.00
6.00 to 7.00
